Assay: Cytotoxicity against mouse RAW264.7 cells assessed as cell viability at 10 uM incubated for 48 hrs by CCK8 assay
Type: toxicity, cell-based
Conditions: read-out: Activity
PROPERTY_MEASURED: viability at 48 h, 10 µM (%)
Give just the numeric value; % need not be written.

Recorded viability at 48 h, 10 µM, per entry:
1. C=C1C(=O)O[C@@H]2C[C@@]1(C)[C@@H]1C(=O)[C@@]3(O)O[C@]14[C@@]2(C)OC(=O)[C@@]4(O)CC[C@H]1[C@H]3CC=C2C=CCC(=O)[C@@]21C :: 91.4
2. C=C1C(=O)O[C@@H]2C[C@@]1(C)[C@@H]1C(=O)[C@@]3(O)O[C@]14[C@@]2(C)OC(=O)[C@@]4(O)CC[C@H]1[C@H]3C[C@@H](O)C2=CC=CC(=O)[C@@]21C :: 92.3
3. C=C1C(=O)O[C@@H]2C[C@@]1(C)[C@@H]1C(=O)[C@@]3(O)O[C@]14[C@@]2(C)OC(=O)[C@@]4(O)CC[C@H]1[C@H]3C[C@@H](O)[C@@]2(Cl)CC=CC(=O)[C@]12C :: 90.1

QUERY: Report viability at 48 h, 10 µM, nothing else, for this compound: C=C1C(=O)O[C@@H]2C[C@@]1(C)[C@@H]1C(=O)[C@@]3(O)O[C@]14[C@@]2(C)OC(=O)[C@@]4(O)CC[C@H]1[C@H]3CC=C2CC=CC(=O)[C@@]21C
RESULT: 90.7
